Data origin, for the record: ChEMBL document CHEMBL1795230

# Target Or System: Carbonic anhydrase 13 (Homo sapiens)
# Sequence (Q8N1Q1 whole entry): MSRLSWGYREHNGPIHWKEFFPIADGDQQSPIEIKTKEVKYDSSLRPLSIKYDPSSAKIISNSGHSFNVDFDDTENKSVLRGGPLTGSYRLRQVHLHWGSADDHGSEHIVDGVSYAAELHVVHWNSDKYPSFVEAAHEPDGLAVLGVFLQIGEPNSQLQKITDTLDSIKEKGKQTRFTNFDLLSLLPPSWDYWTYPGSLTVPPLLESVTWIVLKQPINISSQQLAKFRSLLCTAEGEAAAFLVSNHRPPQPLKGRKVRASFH
Metric Name: Ki

1. NS(=O)(=O)c1cc(Cl)c(Cl)c(S(N)(=O)=O)c1 [DICHLORPHENAMIDE] ... 23 nM
